Exercise: state measured IC50 for each of the compounds provided.
- Target entity: KRAS G12C in MiaPaCa2 cells (Homo sapiens, UniProt P01116, G12C)
- Construct: endogenous in cells; host or cells: MiaPaCa2
- Sequence (P01116 1-188 isoform P01116-2 G12C): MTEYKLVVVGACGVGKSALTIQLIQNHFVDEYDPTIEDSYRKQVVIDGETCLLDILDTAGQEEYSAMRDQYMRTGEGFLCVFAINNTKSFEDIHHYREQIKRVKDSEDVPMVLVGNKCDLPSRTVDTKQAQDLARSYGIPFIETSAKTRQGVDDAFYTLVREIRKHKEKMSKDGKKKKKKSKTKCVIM
- Assay text: MiaPaCa2 Cell Activity Assay (Raf-1 RBD capture of active Ras, MSD)
- Format: cell-based
- Run parameters: MIAPaCa-2 cells, 6 hours treatment; assay limit is 30.0 μM
- Method: MiaPaCa2 Cell Activity Assay Compounds presented in the present invention lead to the accumulation of the GDP bound Ras upon treatment of human cancer cell line. The accumulation of the GDP-bound KRAS G12C in cellular environment was measured based on the principle that KRAS G12C only binds to its downstream kinase; Raf-1 (MAP Kinase Kinase Kinase), when in its active-GTP bound state. In this state, Ras binded to a domain of Raf-1 kinase referred to as the Ras Binding Domain (RBD). […]
Answers are plain numbers, in µM.

Worked set:
C=CC(=O)N1CCN(c2nc(N3CC(N(C)C)C3)nc3c2C[C@@H](C)[C@H](c2c(Cl)c(C)cc4[nH]ncc24)C3)CC1 (relative stereo) [Example F6] | 0.126
C=CC(=O)N1CCN(c2ncnc3c2CC[C@H](c2c(C)ccc4[nH]ncc24)C3)CC1 (single isomer, unassigned) [Example A3] | 4.15
C=CC(=O)N1CCN(c2nc(OCCOC)nc3c2CCC(c2c(C)ccc4[nH]ncc24)C3)CC1 (stereo not shown) [Example C1] | 9.84

**Q:** Look up KRAS G12C in MiaPaCa2 cells (Homo sapiens, UniProt P01116, G12C) data: IC50 of C=CC(=O)N1CCN(c2nc(OCCCN(C)C)nc3c2C[C@@H](C)[C@H](c2c(C)ccc4[nH]ncc24)C3)CC1 [Example C5] , then report it.
**A:** 0.214
